target: p38 α (Homo sapiens, UniProt Q16539); construct: gene MAPK14; assay: ADP-Glo kinase assay (Promega CMGC-1 kinase selectivity profiling system), dose response […]; assay type: biochemical
Sequence (Q16539 2-360): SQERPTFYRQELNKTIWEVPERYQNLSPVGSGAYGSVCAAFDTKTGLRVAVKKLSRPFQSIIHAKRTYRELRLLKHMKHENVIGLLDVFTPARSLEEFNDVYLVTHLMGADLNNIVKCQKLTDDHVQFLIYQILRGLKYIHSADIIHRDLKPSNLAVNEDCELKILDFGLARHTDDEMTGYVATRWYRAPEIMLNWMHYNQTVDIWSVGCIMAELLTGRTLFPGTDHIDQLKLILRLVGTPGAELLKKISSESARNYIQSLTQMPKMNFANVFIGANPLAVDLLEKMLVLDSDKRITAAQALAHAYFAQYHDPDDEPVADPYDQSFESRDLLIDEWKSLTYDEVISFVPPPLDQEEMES
readout_name: IC50 (µM)
Please respond with the number in µM and leave the unit unwritten.

Ask: Can you share its IC50? I mean this compound: CCOC(=O)[C@H](Cc1c[nH]c2ccccc12)NC(=O)/C=C/c1ccc(O)c(O)c1 [Javamide-II-ethyl, javamide-II-O-ethyl ester]
Reply: 9.9
